test system: Zika virus; experiment: Antiviral activity against ZIKV infected in HUVECs pre-infected with virus followed by compound addition and measured after 48 hrs by qRT-PCR analysis; type: functional, organism-based; details: HUVEC
pEC50: −log10 of the molar value.
measured_parameter: pEC50

compound	measured_parameter	result_number
CN1CCN(c2ccnc(CN3CCN(c4ccc(Cl)cc4)CC3)c2)CC1	pEC50	5.84
CN(C)CCN(C)c1ccc(C#N)c(CN2CCN(c3ccc(Cl)cc3)CC2)c1	pEC50	5.66
CN(C)CCN(C)c1ccc(C(F)(F)F)c(CN2CCN(c3ccc(Cl)cc3)CC2)c1	pEC50	5.95
CN(C)CCN(C)c1ccnc(CN2CCN(c3ccc(Cl)cc3)CC2)c1	pEC50	6.02
CN1CCCN(c2ccc(C(F)(F)F)c(CN3CCN(c4ccc(C(F)(F)F)cc4)CC3)c2)CC1	pEC50	6.03
CN1CCC2(CC1)CCN(c1ccnc(CN3CCN(c4ccc(C(F)(F)F)cc4)CC3)c1)C2	pEC50	5.66
Clc1ccc(N2CCN(Cc3cc(N4CC5CN(Cc6ccccc6)CC5C4)ccn3)CC2)cc1 (centres undefined)	pEC50	5.70
CN1CCC2(CC1)CCN(c1ccnc(CN3CCN(c4ccc(Cl)cc4)CC3)c1)C2	pEC50	6.23
Clc1ccc(N2CCN(Cc3cc(N4CCC5(CCN(Cc6ccccc6)CC5)C4)ccn3)CC2)cc1	pEC50	6.82

---

experiment: Metabolic stability in mouse liver microsomes assessed as half life preincubated with NADPH for 10 mins followed by compound addition and measured upto 30 mins by LC-MS/MS analysis; assay type: ADME, Microsome; conditions: time < 40 min
The following molecules are listed with their measured half-life values.

test_smiles	half-life [h]
CN(C)CCN(C)c1ccc(C#N)c(CN2CCN(c3ccc(Cl)cc3)CC2)c1	0.548
CN1CC2(CCN(c3ccnc(CN4CCN(c5ccc(Cl)cc5)CC4)c3)C2)C1	1.4
CN(C)CCN(C)CCN(C)c1ccc(C(F)(F)F)c(CN2CCN(c3ccncc3)CC2)c1	2.31

---

experiment: Selectivity index, ratio of CC50 for HUVECs to EC50 for ZIKA virus infected in HUVECs; type: toxicity; conditions: human, HUVEC cells; read-out: Ratio CC50/EC50
# selectivity ratio >= 50 gives Yes, anything below gives No

test_smiles	label_value
CN1CCCN(c2ccnc(CN3CCN(c4ccc(C(F)(F)F)cc4)CC3)c2)CC1	Yes
CN1CCCN(c2ccc(C(F)(F)F)c(CN3CCN(c4ccc(C(F)(F)F)cc4)CC3)c2)CC1	No
CN(C)CCN(C)c1ccc(C(F)(F)F)c(CN2CCN(c3ccc(Cl)cc3)CC2)c1	No
CN1CC2(CCN(c3ccnc(CN4CCN(c5ccc(Cl)cc5)CC4)c3)C2)C1	Yes
CN1CCC2(CC1)CCN(c1ccnc(CN3CCN(c4ccc(Cl)cc4)CC3)c1)C2	Yes
CN(C)CCN(C)c1ccc(C(F)(F)F)c(CN2CCN(c3ccc(C(F)(F)F)cc3)CC2)c1	No
CN(C)CCN(C)CCN(C)c1ccc(C(F)(F)F)c(CN2CCN(c3ccncc3)CC2)c1	Yes

---

assay: Metabolic stability in human liver microsomes assessed as half life preincubated with NADPH for 10 mins followed by compound addition and measured upto 30 mins by LC-MS/MS analysis; type: ADME, Microsome; conditions: time < 40 min
measured_parameter: half-life

test_smiles	result
CN(C)CCN(C)CCN(C)c1ccc(C(F)(F)F)c(CN2CCN(c3ccncc3)CC2)c1	> 1.53 h
CN(C)CCN(C)c1ccc(C#N)c(CN2CCN(c3ccc(Cl)cc3)CC2)c1	> 1.53 h
CN1CC2(CCN(c3ccnc(CN4CCN(c5ccc(Cl)cc5)CC4)c3)C2)C1	> 1.53 h

---

system: Zika virus; assay: Antiviral activity against ZIKV infected in HUVECs pre-infected with virus followed by compound addition and measured after 48 hrs by qRT-PCR analysis; assay type: functional, organism-based; settings: HUVEC
measured_parameter: EC50 (nM)

molecule	measured_parameter	units_symbol	result_number
CN(C)CCN(C)CCN(C)c1ccnc(CN2CCN(c3ccc(Cl)cc3)CC2)c1	EC50	nM	870
CN1CC2(CCN(c3ccnc(CN4CCN(c5ccc(Cl)cc5)CC4)c3)C2)C1	EC50	nM	820
NC(=O)c1ncn([C@@H]2O[C@H](CO)[C@@H](O)[C@H]2O)n1 [RIBAVIRIN]	EC50	nM	2550

---

test: Selectivity index, ratio of CC50 for HUVECs to EC50 for ZIKA virus infected in HUVECs; type: toxicity; conditions: human, HUVEC cells; read-out: Ratio CC50/EC50
The following compounds are listed with their measured selectivity ratio values.

compound	censoring_qualifier	selectivity ratio
NC(=O)c1ncn([C@@H]2O[C@H](CO)[C@@H](O)[C@H]2O)n1	>	59
CN(C)CCN(C)CCN(C)c1ccnc(CN2CCN(c3ccc(Cl)cc3)CC2)c1	>	58
Clc1ccc(N2CCN(Cc3cc(N4CCC5(CCN(Cc6ccccc6)CC5)C4)ccn3)CC2)cc1	=	138
CN(C)CCN(C)c1ccnc(CN2CCN(c3ccc(Cl)cc3)CC2)c1	>	52
CN1CCC2(CC1)CCN(c1ccnc(CN3CCN(c4ccc(C(F)(F)F)cc4)CC3)c1)C2	=	14
CN1CCC2(CC1)CCN(c1ccc(C(F)(F)F)c(CN3CCN(c4ccc(C(F)(F)F)cc4)CC3)c1)C2	=	4
CN1CC2CN(c3ccnc(CN4CCN(c5ccc(Cl)cc5)CC4)c3)CC2C1 (stereo not drawn)	>	41
CN(C)CCN(C)c1ccc(C#N)c(CN2CCN(c3ccc(Cl)cc3)CC2)c1	=	9

---

test system: Zika virus; experiment: Antiviral activity against ZIKV infected in HUVECs pre-infected with virus followed by compound addition and measured after 48 hrs by qRT-PCR analysis; assay type: functional, organism-based; settings: HUVEC

molecule	tested_target	EC50
CN1CC2CN(c3ccnc(CN4CCN(c5ccc(Cl)cc5)CC4)c3)CC2C1 (stereo not given)	Zika virus	1220 nM
CN(C)CCN(C)CCN(C)c1ccc(C(F)(F)F)c(CN2CCN(c3ccncc3)CC2)c1	Zika virus	390 nM
CN1CCCN(c2ccnc(CN3CCN(c4ccc(C(F)(F)F)cc4)CC3)c2)CC1	Zika virus	1320 nM
CN1CCC2(CC1)CCN(c1ccc(C(F)(F)F)c(CN3CCN(c4ccc(C(F)(F)F)cc4)CC3)c1)C2	Zika virus	590 nM
CN(C)CCN(C)c1ccc(C(F)(F)F)c(CN2CCN(c3ccc(C(F)(F)F)cc3)CC2)c1	Zika virus	2930 nM

Where do these numbers come from? They come from ChEMBL document CHEMBL5550103.
